- Tested on: MOLT-4 leukemia
- TEST METHOD NOTES: NCI tumour cell line growth inhibition, 48 h
ASSAY READOUT: TGI

Could you please provide reported TGI for `COc1ccc(/N=N/C(=NNC(=O)c2ccc(C)cc2)c2ccc(N(C)C)cc2)cc1` ? Thanks!
> 72.5 µM

Give a short answer stating reported TGI for `COc1cc2c(=O)n(CC3CCCCC3)c3c4cc[nH]c4ncc3c2cc1OC` .
> 50 µM

Consider the compound `O=[N+]([O-])c1ccc2nc(-c3ccc(Cl)cc3)[nH]c2c1` and give its recorded TGI.
> 100 µM

Give me measured TGI, please, for this compound: `Cc1nc(-n2nc(-c3ccccc3)cc2-c2ccccc2)sc1C(=O)CC(=O)C(=O)Nc1ccc(O)cc1`
> 100 µM

# return recorded TGI for input CC1C(c2ccccc2)NC(c2ccccc2)CC1(N)C#N (stereo not given)
> 100 µM
